System: Streptococcus pneumoniae
Experiment: Antibacterial activity against macrolides/lincosamides/streptogramines-resistant Streptococcus pneumoniae BAA1407 expressing mef and erm genes by broth microdilution method
Readout Label: MIC (µg/mL)
Answer in µg/mL, number only, no unit symbol.

### Prompt Identify measured MIC associated with CCOC(=O)C(C[C@H]1C(=O)[C@H](C)C[C@@](C)(OC)[C@H](O[C@@H]2O[C@H](C)C[C@H](N(C)C)[C@H]2OC(C)=O)[C@@H](C)C(=O)[C@@H](C)C(=O)O[C@H](CC)[C@@]2(C)OC(=O)N[C@H]12)C(=O)OCC
### Response 128

* * *

# Lookup of reported MIC keyed by entry
Test system: Staphylococcus aureus
Assay: Antibacterial activity against constitutively macrolides/lincosamides/streptogramines-resistant Staphylococcus aureus ND048910 expressing erm gene by broth microdilution method
Assay type: functional

[[record]]
compound = "C=C1C(=O)[C@H](C)C[C@@](C)(OC)[C@H](O[C@@H]2O[C@H](C)C[C@H](N(C)C)[C@H]2OC(C)=O)[C@@H](C)C(=O)[C@@H](C)C(=O)O[C@H](CC)[C@@]2(C)OC(=O)N[C@H]12"
result = "> 64 µg/mL"


### Prompt Provide MIC, recorded with Staphylococcus aureus, of CC[C@H]1OC(=O)[C@H](C)[C@@H](O[C@H]2C[C@@](C)(OC)[C@@H](O)[C@H](C)O2)[C@H](C)[C@@H](O[C@@H]2O[C@H](C)C[C@H](N(C)C)[C@H]2O)[C@](C)(OC)C[C@@H](C)C(=O)[C@H](C)[C@@H](O)[C@]1(C)O [CLARITHROMYCIN]
### Response > 64 µg/mL
